Measured pIC50, listed per entry.
Molecular target: IL-23R (Homo sapiens, UniProt Q5VWK5)
Construct: host or cells: HEK-blue IL23 reporter gene cell line
Sequence (Q5VWK5 24-629): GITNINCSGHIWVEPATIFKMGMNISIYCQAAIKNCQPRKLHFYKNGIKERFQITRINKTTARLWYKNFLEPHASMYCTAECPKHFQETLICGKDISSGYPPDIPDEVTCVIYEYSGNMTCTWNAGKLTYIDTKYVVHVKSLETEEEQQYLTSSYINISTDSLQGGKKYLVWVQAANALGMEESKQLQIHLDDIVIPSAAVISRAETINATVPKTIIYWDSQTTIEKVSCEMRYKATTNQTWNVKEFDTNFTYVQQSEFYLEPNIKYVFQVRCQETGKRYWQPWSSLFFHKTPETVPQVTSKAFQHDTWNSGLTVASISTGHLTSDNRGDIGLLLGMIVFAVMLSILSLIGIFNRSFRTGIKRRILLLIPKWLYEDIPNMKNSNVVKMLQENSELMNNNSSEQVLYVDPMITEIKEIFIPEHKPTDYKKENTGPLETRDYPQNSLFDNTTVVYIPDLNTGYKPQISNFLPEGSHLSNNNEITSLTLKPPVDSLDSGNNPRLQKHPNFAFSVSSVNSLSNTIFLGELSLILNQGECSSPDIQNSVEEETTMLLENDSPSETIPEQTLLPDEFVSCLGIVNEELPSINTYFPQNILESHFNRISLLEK
Test: IL-23R reporter gene assay (HEK-blue IL23 reporter gene cell line, rhIL23 stimulation)
Assay type: cell-based
Details: Inhibition of IL-23R, rhIL23 1 ng/mL, 24 hours
Positions of bridges follow the written chain, without caps; N, C: chain ends. Non-standard residues stand in square brackets, D forms with d. Residues, ends and D or L forms follow the SMILES beside them. Trp(7-cPr) = N[C@@H](Cc1c[nH]c2c(C3CC3)cccc12)C(=O)O; Trp(7-Me) = Cc1cccc2c(C[C@H](N)C(=O)O)c[nH]c12; 2Nal = N[C@@H](Cc1ccc2ccccc2c1)C(=O)O; AEF = NCCOc1ccc(C[C@H](N)C(=O)O)cc1; 3Pal = N[C@@H](Cc1cccnc1)C(=O)O; Pen = CC(C)(S)[C@H](N)C(=O)O; Thp = NC1(C(=O)O)CCOCC1; Sar = CNCC(=O)O
Expect pIC50 as a plain number equal to -log10 of the molar concentration.

- CC(=O)NCCCC[C@@H]1NC(=O)[C@H](Cc2c[nH]c3c(C)cccc23)NC(=O)[C@H]([C@@H](C)O)NC(=O)[C@H](Cc2c[nH]cn2)NC(=O)[C@@H](NC(C)=O)C(C)(C)SSC(C)(C)[C@@H](C(=O)N[C@@H](Cc2ccc(OCCN)cc2)C(=O)N[C@@H](Cc2ccc3ccccc3c2)C(=O)NC2(C(=O)N[C@@H](CCC(=O)O)C(=O)N[C@@H](CC(N)=O)C(=O)N[C@@H](Cc3cccnc3)C(=O)N(C)CC(N)=O)CCOCC2)NC1=O [Compound 3] (Ac-[Pen]HT[Trp(7-Me)]K(Ac)[Pen][AEF][2Nal][Thp]EN[3Pal][Sar]-NH2; disulfide 1-6): 8.87

Attention now shifts to the item below.
# input Fill blank: measured pIC50 of the compound CC(=O)N[C@@H]1C(=O)N[C@@H](Cc2c[nH]cn2)C(=O)N[C@@H]([C@@H](C)O)C(=O)N[C@@H](Cc2c[nH]c3c(C4CC4)cccc23)C(=O)N[C@@H](CCC(N)=O)C(=O)N[C@H](C(=O)N[C@@H](Cc2ccc(OCCN)cc2)C(=O)N[C@@H](Cc2ccc3ccccc3c2)C(=O)NC2(C(=O)N[C@@H](CCC(=O)O)C(=O)N[C@@H](CC(N)=O)C(=O)N[C@@H](Cc3cccnc3)C(=O)N(C)CC(N)=O)CCOCC2)C(C)(C)SSC1(C)C [Compound 13] (Ac-[Pen]HT[Trp(7-cPr)]Q[Pen][AEF][2Nal][Thp]EN[3Pal][Sar]-NH2; disulfide 1-6) is ____.
# output 8.51
